src = PubChem BioAssay AID1159580

MEASUREMENT_PROTOCOL: chemical genetic growth profiling, strain panel (AID 1159580);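 note: tested at 20 µM; growth read once vehicle control cultures reached saturation at 30 °C; 1 = growth at the plate median or of vehicle wells; lower values mean less growth of the strain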
ASSAY_CONTEXT: S. cerevisiae deletion strains, growth OD, locus YHR094C, strain hxt1, active compounds read low
Hit rate of the full screen: of about 5,500 compounds, about 2,000 (36%) were called active. Inconclusive results (about 18%) are left out. The list shows a part of the results. Where a SMILES comes first, the peptide text is derived from it. Side-chain parts run from the residue outwards. [ ]: non-standard residue; d: D form. The star is where a group is joined. X1 = CCC(C)C(N)C1=NC(C(=O)*)CS1; Orn = NCCC[CH](N)C(=O)O
RECORDED_METRIC: normalized growth

INSERT INTO assay_data (compound, result) VALUES
  ('COC1(C)CCC2OC2(C)CCC2C1CC2(C)C (centres undefined)', '1.01 (inactive)'),
  ('CC(=O)OCC(=O)[C@@]1(O)CCC2C3CC[C@@H]4C[C@H](OC(C)=O)CC[C@]4(C)C3C(=O)C[C@@]21C (some centres undefined)', '1.01 (inactive)'),
  ('COc1c2occc2c(OC)c2c(=O)cc(C)oc12', '1.01 (inactive)'),
  ('CCC(C)C(N)C1=NC(C(=O)NC(CC(C)C)C(=O)NC(CCC(=O)O)C(=O)NC(C(=O)NCCCCC2NC(=O)C(CC(N)=O)NC(=O)C(CC(=O)O)NC(=O)C(Cc3cnc[nH]3)NC(=O)C(Cc3ccccc3)NC(=O)C(C(C)CC)NC(=O)C(CCCN)NC2=O)C(C)CC)CS1 (stereo not drawn) (cyclo(DNK([Ile-Glu-Leu-X1])[Orn]IFH); configuration not given here)', '0.993 (inactive)'),
  ('COc1c2c(cc3c1OCO3)C13C=C[C@H](OC)CC1N(C2)CC3O (some centres undefined)', '0.978 (inactive)'),
  ('COc1cc(-c2oc3cc(O)ccc3c(=O)c2O)cc(OC)c1OC', '1.01 (inactive)'),
  ('COc1ccc2c(=O)ccoc2c1', '1.01 (inactive)'),
  ('O=c1c(O)c(-c2ccc(O)c(O)c2)oc2cc(O)ccc12', '1.01 (inactive)'),
  ('CC(=O)NO', '0.997 (inactive)');

* * *

MEASUREMENT_PROTOCOL: chemical genetic growth profiling, strain panel (AID 1159580);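 note: tested at 20 µM; growth read once vehicle control cultures reached saturation at 30 °C; 1 = growth at the plate median or of vehicle wells; lower values mean less growth of the strain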
ASSAY_CONTEXT: S. cerevisiae deletion strains, growth OD, locus YPR119W, strain clb2
Screen size: about 5,500 compounds; about 2,000 (36%) were called active. About 18% were inconclusive and are not listed. Cut-off read from the data, not from the text of the source: active = normalized growth mostly below about 0.91 (no sharp cut-off); inconclusive = no clear call, values can overlap the other calls; inactive = mostly above about 0.92. The list shows a part of the results. Where a SMILES comes first, the peptide text is derived from it. Side-chain parts run from the residue outwards. [ ]: non-standard residue; d: D form. The star is where a group is joined. X1 = CCC(C)C(N)C1=NC(C(=O)*)CS1; Orn = NCCC[CH](N)C(=O)O
Labels: class 1 = active, class 0 = inactive

INSERT INTO assay_data (compound, class_assignment) VALUES
  ('O=C1c2ccccc2C(=O)C1c1ccccc1', 'class 0'),
  ('COc1cnc(NS(=O)(=O)c2ccc(N)cc2)nc1', 'class 0'),
  ('Cc1cc(C(C)(C)C)cc(C)c1CC1=NCCN1', 'class 0'),
  ('COc1cc2c(cc1OC)[C@@]13CCN4CC5=CCOC6CC(=O)N2C1[C@H]6[C@H]5C[C@H]43 (stereo partly drawn)', 'class 0'),
  ('COC(=O)C[C@H]1C(C)(C)[C@@H](O)[C@@H]2CC3=C4C=C(OC)O[C@@H](c5ccoc5)[C@]4(C)CCC3[C@@]1(C)C2=O (stereo partly drawn)', 'class 0'),
  ('CC(=O)O[C@H]1CC[C@]2(C)C3CC[C@@]4(C)C(CC5O[C@@]6(CCC(C)CO6)[C@@H](C)C54)C3CC[C@@H]2C1 (stereo partly drawn)', 'class 0'),
  ('CC(=O)O[C@@H]1CC[C@]2(C)C3CC[C@]4(C)C(=O)CCC4C3CC[C@H]2C1 (stereo partly drawn)', 'class 0'),
  ('O=C(CCBr)N1CCN(C(=O)CCBr)CC1', 'class 0'),
  ('CC(=O)O[C@H]1CC[C@]2(C)C3CC[C@@]4(C)C(CC5O[C@@]6(CCC(C)CO6)[C@@H](C)C54)C3CC[C@H]2C1 (stereo partly drawn)', 'class 0'),
  ('Cc1onc(-c2ccccc2)c1C(=O)NC1C(=O)N2[C@@H]1SC(C)(C)[C@@H]2C(=O)O (stereo partly drawn)', 'class 0'),
  ('CC(=O)OC1CCC2(C)C3CC(=O)C4(C)C(CC5OC6(CCC(C)CO6)[C@@H](C)C54)C3CC[C@H]2C1 (stereo partly drawn)', 'class 0'),
  ('Cc1cc(=O)n(-c2ccccc2)n1C', 'class 0'),
  ('COc1cccc(O)c1O', 'class 0'),
  ('NC1C[C@H]1c1ccccc1 (stereo partly drawn)', 'class 0'),
  ('COc1cc(/C=C/C=O)cc(OC)c1OC', 'class 0'),
  ('CCOc1cccc(C(=O)c2ccc(O)c(O)c2O)c1', 'class 0'),
  ('C1CCC(C(CC2CCCCN2)C2CCCCC2)CC1 (stereo not drawn)', 'class 0'),
  ('CC(=O)OCC(=O)[C@@]1(O)CCC2C3CC[C@@H]4C[C@H](OC(C)=O)CC[C@]4(C)C3C(=O)C[C@@]21C (stereo partly drawn)', 'class 0'),
  ('CCC(C)C(N)C1=NC(C(=O)NC(CC(C)C)C(=O)NC(CCC(=O)O)C(=O)NC(C(=O)NCCCCC2NC(=O)C(CC(N)=O)NC(=O)C(CC(=O)O)NC(=O)C(Cc3cnc[nH]3)NC(=O)C(Cc3ccccc3)NC(=O)C(C(C)CC)NC(=O)C(CCCN)NC2=O)C(C)CC)CS1 (stereo not drawn) (cyclo(DNK([Ile-Glu-Leu-X1])[Orn]IFH); configuration not given here)', 'class 0'),
  ('CC1(C)S[C@@H]2[C@H](NC(=O)Cc3ccccc3)C(=O)N2[C@H]1C(=O)O', 'class 0'),
  ('C=C(C)[C@H]1Cc2c(ccc3c2O[C@@H]2COc4cc(OC)c(OC)cc4[C@@H]2C3=O)O1', 'class 0'),
  ('CC1=CC(=O)C2=C(C)CC(O)C3C(C)C(=O)OC3C12 (stereo not drawn)', 'class 0'),
  ('CC(C)CC1NC(=O)C(CCCN)NC(=O)C(C(C)C)NC(=O)C2CCCN2C(=O)C(Cc2ccccc2)NC(=O)C(CC(C)C)NC(=O)C(CCCN)NC(=O)C(C(C)C)NC(=O)C2CCCN2C(=O)C(Cc2ccccc2)NC1=O (stereo not drawn) (cyclo(FPV[Orn]LFPV[Orn]L); configuration not given here)', 'class 0'),
  ('CC1=NN(c2ccccc2)C(=O)C1', 'class 0'),
  ('COc1ccc([C@H]2COc3c(ccc(O)c3OC)C2)c(OC)c1O', 'class 0'),
  ('O=c1oc2c(O)c(O)cc3c(=O)oc4c(O)c(O)cc1c4c23', 'class 0'),
  ('CC(=O)Oc1cccc2c1C(=O)c1c(OC(C)=O)cc(C(=O)O)cc1C2=O', 'class 1'),
  ('c1ccc([C@H]2CN3CCSC3=N2)cc1', 'class 0'),
  ('CC(=O)[C@@]1(O)CCC2C3CCC4=CC(=O)CC[C@]4(C)C3CC[C@@]21C (stereo partly drawn)', 'class 0'),
  ('CC1=CC2C(C(C)C)CCC(C)(O)C2CC1 (stereo not drawn)', 'class 0'),
  ('CC(=O)CC1CCCCN1 (stereo not drawn)', 'class 0'),
  ('CCc1cccc2c3c([nH]c12)C(CC)(CC(=O)O)OCC3 (stereo not drawn)', 'class 0'),
  ('COc1ccc(C2C(=O)c3ccccc3C2=O)cc1', 'class 0');
